tested on: Rodentolepis nana; assay: Anthelmintic activity against Hymenolepis nana infected in mouse assessed as reduction in worm burden at 25 mg/kg bid for 5 days relative to control; assay type: functional; design: scale not given: the % may be the effect or the level left
Activity calls are given as the source filed them. The calls are words filed in the database; no cut-off is given here.
observation_type: Activity

Examples from the recorded data:
{"molecule": "Cc1cc(O)c2c(ccc3nc(-c4ccco4)[nH]c32)n1 [FURODAZOLE]", "measured_target": "Rodentolepis nana", "observation_type": "Activity", "result": "100%"}
{"molecule": "Oc1c2c(nc3ccc4nc(-c5ccccc5)[nH]c4c13)CCC2", "measured_target": "Rodentolepis nana", "observation_type": "Activity", "result": "inactive"}
{"molecule": "CCCCCCOc1ccc(C(=N)N(CCCC)CCCC)c2ccccc12 [BUNAMIDINE]", "measured_target": "Rodentolepis nana", "observation_type": "Activity", "result": "30%"}
{"molecule": "Cc1cc(O)c2c(ccc3nc(-c4ccccc4Cl)[nH]c32)n1", "measured_target": "Rodentolepis nana", "observation_type": "Activity", "result": "inactive"}
{"molecule": "Cc1cc(O)c2c(ccc3nc(-c4ccccc4)[nH]c32)n1", "measured_target": "Rodentolepis nana", "observation_type": "Activity", "result": "77%"}
{"molecule": "Oc1cc(-c2ccccc2)nc2ccc3nc(-c4ccccc4)[nH]c3c12", "measured_target": "Rodentolepis nana", "observation_type": "Activity", "result": "inactive"}

Reported Activity for Cc1nc2ccc3nc(-c4ccccc4)[nH]c3c2c(O)c1C was inactive

* * *

Parameter Activity: see the listing below.
test system: Rodentolepis nana; test: Anthelmintic activity against Hymenolepis nana infected in mouse assessed as reduction in worm burden at 50 mg/kg bid for 5 days relative to control; format: functional; parameters: scale not given: the % may be the effect or the level left
The answer is to be given in %; state only the numeric part.

Examples from the recorded data:
{"compound": "Oc1c2c(nc3ccc4nc(-c5ccccc5)[nH]c4c13)CCC2", "observation_type": "Activity", "numeric_result": 41}
{"compound": "CCCCCCOc1ccc(C(=N)N(CCCC)CCCC)c2ccccc12 [BUNAMIDINE]", "observation_type": "Activity", "numeric_result": 59}

// switching to the query compound
Reported Activity for Cc1cc(O)c2c(ccc3nc(-c4ccco4)[nH]c32)n1 [FURODAZOLE] was 100

* * *

Parameter Activity: see the listing below.
system: Rodentolepis nana; assay: Anthelmintic activity against Hymenolepis nana infected in mouse assessed as reduction in worm burden at 50 mg/kg bid for 5 days relative to control; type: functional; parameters: scale not given: the % may be the effect or the level left
The answer is to be given in %; state only the numeric part.

Examples from the recorded data:
{"input_smiles": "Cc1nc2ccc3nc(-c4ccccc4)[nH]c3c2c(O)c1C", "measured_target": "Rodentolepis nana", "Activity / %": 94}
{"input_smiles": "Cc1cc(O)c2c(ccc3nc(-c4ccccc4)[nH]c32)n1", "measured_target": "Rodentolepis nana", "Activity / %": 94}
{"input_smiles": "Oc1cc(-c2ccccc2)nc2ccc3nc(-c4ccccc4)[nH]c3c12", "measured_target": "Rodentolepis nana", "Activity / %": 82}

Reported Activity for Cc1cc(O)c2c(ccc3nc(-c4ccccc4Cl)[nH]c32)n1 was 75
